- System: HEK-293T
- assay-overview: Multiplex assay against HEK293T
- Assay type: toxicity, cell-based
- measurement-conditions: human, 12 h, 1 µM, compound concentration 1 uM, replicate 2
quantity-name: Total Cell Count
Kindly provide the number alone.

Given `COc1c(Nc2ccc(S(C)(=O)=O)nc2C)ncnc1OC1CCN(C(=O)OC(C)C)CC1` , state its recorded Total Cell Count.
347

Given O=C(NCCNCC(O)COc1ccc(O)cc1)N1CCOCC1.O=C(NCCNCC(O)COc1ccc(O)cc1)N1CCOCC1.O=C(O)/C=C/C(=O)O (stereo not given) [XAMOTEROL FUMARATE] , state its recorded Total Cell Count.
271

Given `COc1cc(OC2CCN(C(C)=O)CC2)ccc1C(=O)N1CCC(N2C(=O)OCc3ccccc32)CC1` , state its recorded Total Cell Count.
381

Given `O=C(Nc1cc(-c2ccccc2)nn1-c1ccccc1F)c1ccc([N+](=O)[O-])cc1` , state its recorded Total Cell Count.
417

Given `OCCCNc1cc(-c2ccnc(Nc3cccc(Cl)c3)n2)ccn1` , state its recorded Total Cell Count.
173

Given `Cc1sc2c(c1C)C(c1ccc(Cl)cc1)=N[C@H](CC(=O)OC(C)(C)C)c1nnc(C)n1-2` , state its recorded Total Cell Count.
333

Given O=C(O)CCC/C=C\CC1C(O)CC(O)C1/C=C/C(O)COc1cccc(Cl)c1 (stereo not given) , state its recorded Total Cell Count.
341

Given `CN1CCN(c2ccc(Nc3c4ccccc4nc4ccccc34)cc2)CC1.Cl.Cl.O` , state its recorded Total Cell Count.
364

Given `C[C@@H]1CC(=O)Nc2cccc(-c3ccc4c(c3)c(-c3cnn(C)c3)nn4C)c2N1` , state its recorded Total Cell Count.
349

Given COc1cc2nc(N3CCN(C(=O)c4ccco4)CC3)nc(N)c2cc1OC.Cl [PRAZOSIN HYDROCHLORIDE] , state its recorded Total Cell Count.
290

Given Cl.Cl.OCCOCCN1CCN(C(c2ccccc2)c2ccc(Cl)cc2)CC1 (stereo not given) [HYDROXYZINE HYDROCHLORIDE] , state its recorded Total Cell Count.
362

Given `CCCCC[C@H](O)/C=C/[C@H]1[C@H](O)CC(=O)[C@@H]1CCCCCCC(=O)O` , state its recorded Total Cell Count.
392

Given `C[C@H](NC(=O)CNC(=O)c1cccc(Cl)c1)c1ccccc1` , state its recorded Total Cell Count.
384

Given `CN1CCC(C(=O)c2cccc(NC(=O)c3c(F)cc(F)cc3F)n2)CC1` , state its recorded Total Cell Count.
352

Given CCn1c(-c2nc3cc(C(=O)N4CCCC(N)C4)ccc3n2C)cc2ccccc21.Cl (stereo not given) , state its recorded Total Cell Count.
312

Given `COCCn1c(C)c(C)s/c1=N\C(=O)C1C(C)(C)C1(C)C` , state its recorded Total Cell Count.
304

Given `COc1cc2nc(N3CCN(C(=O)COc4c(OC)cccc4C(C)C)CC3)nc(N)c2cc1OC.Cl.Cl` , state its recorded Total Cell Count.
365

Given `CCCCCCNC(=O)Nc1ccc(S(=O)(=O)Nc2ccc(CCNC[C@H](O)COc3ccc(O)cc3)cc2)cc1` , state its recorded Total Cell Count.
403

Given `CC(C)C[C@H](CO)Nc1nc(S[C@@H](C)c2ccccc2)nc2nc(N)sc12` , state its recorded Total Cell Count.
356

Given CN(C)C/C=C/C(=O)Nc1ccc(C(=O)N2CCCC(Nc3ncc(Cl)c(-c4c[nH]c5ccccc45)n3)C2)cc1 (stereo not given) , state its recorded Total Cell Count.
231

Given `Nc1nc(-c2ccco2)c2cnn(Cc3ccccc3F)c2n1` , state its recorded Total Cell Count.
404

Given `Cn1cc(C(=O)OCC2CCN(CCNS(C)(=O)=O)CC2)c2ccccc21` , state its recorded Total Cell Count.
248

Given `Cc1nn(C)c2nc(NNC(=O)Nc3cc(Cl)nc(Cl)c3)cc(C(C)C)c12` , state its recorded Total Cell Count.
383

Given `Cc1c(Cc2ccc3ccccc3n2)c2cc(F)ccc2n1CC(=O)O` , state its recorded Total Cell Count.
280

Given CN1C[C@H](C(=O)N[C@]2(C)O[C@@]3(O)[C@@H]4CCCN4C(=O)[C@H](Cc4ccccc4)N3C2=O)C[C@@H]2c3cccc4[nH]cc(c34)C[C@H]21.CS(=O)(=O)O [DIHYDROERGOTAMINE MESYLATE] , state its recorded Total Cell Count.
285

Given `N[C@](CC1c2ccccc2Oc2ccccc21)(C(=O)O)[C@H]1C[C@@H]1C(=O)O` , state its recorded Total Cell Count.
270

Given Cc1ccc(OCC(O)C(C)NC(C)C)c2c1CCC2.Cl (stereo not given) , state its recorded Total Cell Count.
360

Given `CC(F)(F)CN1CCOc2c(nn(-c3ccccc3Cl)c2-c2ccc(Cl)cc2)C1=O` , state its recorded Total Cell Count.
369

Given `Cc1cc(NC(=O)NCCN2CCC(O)(Cc3ccccc3)CC2)c2ccccc2n1` , state its recorded Total Cell Count.
326

Given `CC(C)(O)C(=O)N1CCN(c2ccc(C(F)(F)F)c(C3=C(c4c[nH]c5ccccc45)C(=O)NC3=O)c2)CC1` , state its recorded Total Cell Count.
293

Given `COc1ccc2c(c1OCc1ccccc1)C[C@@H](C(=O)O)N(C(=O)C(c1ccccc1)c1ccccc1)C2` , state its recorded Total Cell Count.
409

Given `Cc1cc(=O)n(C)c2cc(N3C(=O)CC[C@H](NS(=O)(=O)CC(C)C)[C@H]3c3ccc(Cl)cc3)ccc12` , state its recorded Total Cell Count.
265

Given `COc1ccc2[nH]c(I)c(CCNC(C)=O)c2c1` , state its recorded Total Cell Count.
400

Given `CN(C)C(=O)Cn1cc(-c2ccc(-c3nnc4ccccn34)cc2)cn1` , state its recorded Total Cell Count.
337

Given `C=CCN1C[C@H](C(=O)N(CCCN(C)C)C(=O)NCC)C[C@@H]2c3cccc4[nH]cc(c34)C[C@H]21` , state its recorded Total Cell Count.
322
